Biological target: MsepCSP5 (Mythimna separata, UniProt A0A5H2NAD7)
Sequence (A0A5H2NAD7 1-127): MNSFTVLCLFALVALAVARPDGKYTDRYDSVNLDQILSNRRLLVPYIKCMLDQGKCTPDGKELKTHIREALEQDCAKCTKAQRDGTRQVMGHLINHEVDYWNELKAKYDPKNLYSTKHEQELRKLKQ
Experiment: Fluorescence competitive binding assay with the probe 1-NPN
Conditions: IC50, pH 7.4; displacement of 1-NPN from MsepCSP5
I'd appreciate it if you marked entries satisfied when IC50 is lower than 30 µM and not satisfied when it is not.

As a guide, the following entries are already answered.
CCOC(C)=O [Ethylacetate]; satisfied
OC1CCCCC1 [Cyclohexanol]; not satisfied
CCC/C=C/C=O [Trans-2-hexenal]; satisfied
C=CC(O)CCCCC (stereo not drawn) [1-Octen-3-ol]; satisfied
CCCCCCCCCCCCCCCC [Hexadecane]; not satisfied

Bench note: check whether CCCCCCCCCCCCCC [Tetradecane] shows IC50 below 30 µM
satisfied

Bench note: check whether CC1=CC[C@@H](C(C)(C)O)CC1 [α -Terpineol] shows IC50 below 30 µM
not satisfied

Bench note: check whether CCCCCC=O [Hexanal] shows IC50 below 30 µM
satisfied

Bench note: check whether CC1=CCC(=C(C)C)CC1 [Terpinolene] shows IC50 below 30 µM
not satisfied

Bench note: check whether CC/C=C\CCOC(C)=O [Cis-3-hexenyl acetate] shows IC50 below 30 µM
not satisfied

Bench note: check whether COC(=O)c1ccccc1 [Methyl benzoate] shows IC50 below 30 µM
not satisfied
